- Assayed System: GLUT1 (Homo sapiens, UniProt P11166)
- Sequence (P11166 1-492): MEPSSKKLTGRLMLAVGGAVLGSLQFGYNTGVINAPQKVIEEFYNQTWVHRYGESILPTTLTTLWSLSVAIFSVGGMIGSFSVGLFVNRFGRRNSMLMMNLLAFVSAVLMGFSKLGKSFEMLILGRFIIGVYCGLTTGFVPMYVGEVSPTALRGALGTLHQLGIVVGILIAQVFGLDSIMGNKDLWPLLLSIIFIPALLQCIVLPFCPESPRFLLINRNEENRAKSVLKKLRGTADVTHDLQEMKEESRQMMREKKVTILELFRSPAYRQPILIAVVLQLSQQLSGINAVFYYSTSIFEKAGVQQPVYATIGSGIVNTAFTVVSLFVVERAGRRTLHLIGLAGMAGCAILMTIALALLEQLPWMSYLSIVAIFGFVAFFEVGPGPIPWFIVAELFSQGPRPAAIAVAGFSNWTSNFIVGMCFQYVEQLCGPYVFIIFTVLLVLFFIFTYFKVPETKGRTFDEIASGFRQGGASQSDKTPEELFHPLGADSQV
- Method Notes: Indirect measurement of GLUT1 activity by quantification of intracellular ATP levels (glucose induced ATP increase)
- Format: cell-based
- Parameters: endogenous in cells; host or cells: DLD1 or CHO-K1
- Assay Context: read-out: IC50 regarding glucose induced ATP increase (GLUT1 inhibition)
Measurement Label: IC50 (nM)

Solved entries (count: 5):
COCc1ccc(Cn2nc(C(F)(F)F)c(NC(=O)c3cc(C(N)=O)nc4cc(F)ccc34)c2C)cc1 ... 10
Cc1nn(Cc2ncccc2C#N)c(C)c1NC(=O)c1cc(C(N)=O)nc2ccc(Br)cc12 ... 4.9
Cc1nn(Cc2ccc(CC#N)cc2)c(C)c1NC(=O)c1cc(C(N)=O)nc2cccc(F)c12 ... 2.4
Cc1c(NC(=O)c2cc(C(F)(F)F)nc3c(Cl)cc(Cl)cc23)c(C(F)(F)F)nn1Cc1ccc(C#N)cc1 ... 46.2
Cc1nn(Cc2ccc(F)c(F)c2)c(C)c1NC(=O)c1cc(C(F)(F)F)nc2ccc(F)cc12 ... 69.6

P: Cc1nn(CC2CCN(S(=O)(=O)c3cccnc3)CC2)c(C)c1NC(=O)c1cc(C(N)=O)nc2ccccc12
Q: Cc1c(NC(=O)c2cc(C(N)=O)nc3ccccc23)c(C(F)(F)F)nn1Cc1ccc(S(C)(=O)=O)cc1
R: Cc1cc(F)ccc1Cn1nc(C(F)(F)F)c(NC(=O)c2cc(C(N)=O)nc3cccc(F)c23)c1C
Prompt line: Descending sort on IC50 required. Kindly provide the labels arranged according to the requested ordering.
Response line: P, Q, R

---

- Assayed System: GLUT1 (Homo sapiens, UniProt P11166)
- Method Notes: Indirect measurement of GLUT1 activity by quantification of intracellular ATP levels (glucose induced ATP increase)
- Format: cell-based
- Design: endogenous in cells; host or cells: DLD1 or CHO-K1
- Assay Context: read-out: IC50 regarding glucose induced ATP increase (GLUT1 inhibition)
Measurement Label: IC50 (nM)

Check out these entries, answers already filled in.
Cc1nn(Cc2ccc(C(=O)NCCCC(=O)N(C)C)cc2)c(C)c1NC(=O)c1cc(C(F)(F)F)nc2ccc(Br)cc12 [Example 1044] ... 8.8
Cc1c(NC(=O)c2cc(C(N)=O)nc3ccc(Br)cc23)c(C(F)(F)F)nn1Cc1ccc(C#N)cc1F [Example 305] ... 1.4
Cc1ccc2nc(C)cc(C(=O)Nc3c(C)nn(Cc4ccc(F)c(F)c4)c3C)c2c1 [Example 64] ... 130
Cc1c(NC(=O)c2cc(C(N)=O)nc3cccc(F)c23)c(C(F)(F)F)nn1Cc1ccc(C#N)nc1 [Example 291] ... 6.9
COc1ccc(CCn2nc(C)c(NC(=O)c3cc(C(N)=O)nc4ccccc34)c2C)cc1 [Example 1353] ... 38.9

P: CCN(C(=O)c1cc(C(F)(F)F)nc2ccc(Br)cc12)c1c(C)nn(Cc2ccc(F)cc2)c1C [Example 176]
Q: COc1ccccc1CNC(=O)c1ccc(Cn2nc(C)c(NC(=O)c3cc(C(F)(F)F)nc4ccc(Br)cc34)c2C)cc1 [Example 1183]
R: Cc1nn(Cc2ccc(S(C)(=O)=O)cc2)c(C)c1NC(=O)c1cc(C(N)=O)nc2ccc(Br)cc12 [Example 1486]
Prompt line: Sort these molecules on IC50 so the largest reading comes first. Present the labels in the sequence the task asks for.
Response line: Q, P, R
(Q: 241 nM, P: 72.2 nM, R: 9.6 nM)

P: Cc1nn(Cc2ccc(F)c(F)c2)c(C)c1NC(=O)c1cc(C2CC2)nc2ccc(Br)cc12 [Example 123]
Q: Cc1c(NC(=O)c2cc(C(N)=O)nc3cc(F)c(Cl)cc23)c(C(F)(F)F)nn1Cc1ccc(F)c(F)c1 [Example 1444]
Prompt line: Given the two records P and Q , choose the one whose IC50 value is lower. Give the chosen item's label as your response.
Response line: P
(P: 2 nM, Q: 11.6 nM)

I: Cc1ccccc1Cn1nc(C(F)(F)F)c(NC(=O)c2cc(C(N)=O)nc3ccccc23)c1C [Example 1494]
II: CCc1nn(Cc2ccc(C#N)cc2)c(CC)c1NC(=O)c1cc(C(N)=O)nc2ccccc12 [Example 310]
Prompt line: Which record shows the lower IC50: the first, I , or the second, II ? Return value: the label identifying the chosen record.
Response line: I
